experimentalReadout: melting point

Solved cases (3 shown):
[
  {
    "compound": "CCOC(=O)C=Cc1ccccc1N",
    "melting point": "76 to 77 °C"
  },
  {
    "compound": "Cc1cc(Br)c(OCC(=O)NN)c2c1CCC2",
    "melting point": "69 to 70 °C"
  },
  {
    "compound": "C1COCCOCCOCCN1",
    "melting point": "53 to 55 °C"
  }
]

[ask] Requested field: melting point. Item: `Cc1ccc2sc(C(=O)Cl)cc2c1`
[reply] 58 to 60 °C

[ask] For the compound shown here, `O=C1CCCc2c1nc(-c1ccccc1)n2O` , give the reported melting point.
[reply] 247 to 257 °C

[ask] Entry `O=C(CCl)N[C@@H](Cc1ccc(O)cc1)C(=O)O` : reported melting point = ?
[reply] 153 to 154 °C

[ask] Look up melting point for this compound: `Clc1ccc(OCCCCBr)cc1`
[reply] 30 to 31 °C

[ask] Request the reported melting point associated with `CCOC(=O)c1c(-c2ccco2)csc1N`
[reply] 86 to 89 °C

[ask] Fill in the blank: the reported melting point of `NCCNc1ccc([N+](=O)[O-])cn1` is ____.
[reply] 126 to 128 °C

[ask] // query melting point value for entry COc1ccc(C2C3=C(CC(C)(C)CC3=O)Nc3ccc4ccccc4c32)cc1 (configuration not stated)
[reply] 288 °C

[ask] Look at this compound and give its reported melting point. `COC(=O)[C@H](CSCc1ccccc1)NC(C)=O`
[reply] 67 to 73 °C

[ask] Which melting point reading was recorded for the compound `CCOC(=O)Cc1nc(O)cs1` ?
[reply] 153 to 155 °C

[ask] // lookup melting point for `Cc1cc(Cl)c([N+](=O)[O-])cc1[N+](=O)[O-]`
[reply] 90 °C

[ask] Record request: melting point value, item `BrC(Br)C(Br)(Br)Br`
[reply] 56.5 °C

[ask] Query: melting point; subject: `CO/C(C)=C(\C#N)c1ccccc1[N+](=O)[O-]`
[reply] 66 to 69 °C

[ask] Could you share which melting point value was measured for `CC(C)(C)OC(=O)Nc1cccs1` ?
[reply] 151 to 152 °C

[ask] Consider the compound shown here: `Clc1cc2oc3c(Cl)c(Cl)c(Cl)cc3c2cc1Cl` What is its recorded melting point?
[reply] 196 °C

---

experimentalReadout: melting point (°C)

Solved entries:
[
  {
    "compound": "Cc1c(C(=O)O)cccc1[N+](=O)[O-]",
    "experimentalReadout": "melting point",
    "result": 184
  },
  {
    "compound": "CC(=C/C=N/NC(N)=O)C(C)(C)C",
    "experimentalReadout": "melting point",
    "result": 148
  },
  {
    "compound": "Cc1cccc(OCC(=O)O)c1",
    "experimentalReadout": "melting point",
    "result": 104
  }
]

P: Cc1ccc(S(=O)(=O)N2CCCN(S(=O)(=O)c3ccc(C)cc3)CC(=O)NCCCNC(=O)C2)cc1
Q: Cn1c(=O)c(C2=NNC(=O)C2=Cc2cccc(Cl)c2)c(O)c2ccccc21
R: ClC1CCC(Cl)CC1 (configuration not stated)
S: c1cc(OCC2CO2)ccc1OCC1CO1 (configuration not stated)
[ask] Rank the 4 compounds: largest melting point first, smallest last. Provide your answer as the labels ordered per the instruction.
[reply] Q, P, S, R
(Q: 265 °C, P: 159 °C, S: 111 °C, R: 18 °C)

---

experimentalReadout: melting point (°C)

Here are 6 molecules together with their reported answers.
[
  {
    "molecule": "Cc1cc(CO)c(O)c(CO)c1",
    "melting point [°C]": 129
  },
  {
    "molecule": "COc1ccc(-c2nnc3n2NCS3)cc1",
    "melting point [°C]": 200
  },
  {
    "molecule": "CC(=O)N[C@@H](C)C(=O)N[C@@H](C)C(=O)N[C@@H](C)C(=O)O",
    "melting point [°C]": 248
  },
  {
    "molecule": "OCCCCC#CC#CCCCCO",
    "melting point [°C]": 50
  },
  {
    "molecule": "Cn1c(=O)c(C2=NNC(=O)C2=C2C(=O)Nc3ccccc32)c(O)c2ccccc21",
    "melting point [°C]": 279
  },
  {
    "molecule": "C=C1C(=O)C23C(OC(C)=O)CC4C(C)(C)CCC(OC(C)=O)C4(C)C2C(OC(C)=O)CC1C3OC(C)=O (stereo not drawn)",
    "melting point [°C]": 277
  }
]

P: O=C(C=Cc1ccc(Cl)cc1)c1ccc(Cl)cc1
Q: CC(C)(Oc1ccc(Cl)cc1)C(=O)OCCCOC(=O)C(C)(C)Oc1ccc(Cl)cc1
R: CC(C)C(C)C(O)C(O)C(C)C1CCC2C3COC(=O)C4CC(O)C(O)CC4(C)C3CCC12C (stereo not drawn)
S: N#Cc1cc(F)c(Cl)nc1Cl
[ask] Reorder: melting point, max to min. The reply should contain the labels ordered as requested.
[reply] R, P, S, Q

---

The entries below are paired with their reported melting point.

See these solved cases before continuing.
[
  {
    "molecule": "CCOC(=O)C(ON=C(c1cc2ccccc2o1)c1cc2ccccc2o1)C(=O)OCC",
    "melting point": "137 to 138 °C"
  },
  {
    "molecule": "O=C(O)CSc1nnc(S)s1",
    "melting point": "168 to 169 °C"
  },
  {
    "molecule": "O=C(c1ccc(Br)cc1)c1noc(-c2ccc([N+](=O)[O-])cc2)c1S(=O)(=O)c1ccccc1",
    "melting point": "200 to 202 °C"
  }
]

[ask] Which melting point is listed for `NNC(=O)c1cncc(Br)c1` ?
[reply] 199 to 202 °C

[ask] Quick one: melting point of `Nc1nn2c(C(F)(F)F)cc(=O)[nH]c2c1/N=N/c1c(Br)cc(Br)cc1Br` ?
[reply] 92 to 94 °C

[ask] Recorded melting point of O=C(Cl)C1COc2ccccc2O1 (configuration not stated) , please.
[reply] 56 to 57 °C

[ask] Quick one: melting point for `CC(=O)Nc1ccc(Cl)cc1C` ?
[reply] 136 to 138 °C

[ask] Param item = CC(O)CN(CC(C)O)CC(C)O (configuration not stated) ; retrieve measured melting point.
[reply] 48 to 52 °C

[ask] Request the reported melting point associated with `CC(=O)c1c(-c2cccc(Cl)c2Cl)noc1C`
[reply] 62 to 64 °C

[ask] Consider the molecule shown here: CCC1CC(=O)CC(C)(C)N1O (configuration not stated) What is its recorded melting point?
[reply] 33 to 38 °C

[ask] Which melting point value belongs to `O=Cc1cccn1-c1ccc(C(F)(F)F)cc1` ?
[reply] 97 to 98 °C

[ask] I have this molecule here, `NCc1ccc2nccn2c1` , and I need its recorded melting point.
[reply] 97 to 99 °C

[ask] Can you look up the measured melting point of `CCOC(=O)c1c[nH]c2c(F)c(F)c(F)cc2c1=O` for me?
[reply] 267 to 272 °C

[ask] Item `O=C(O)c1ccc(-c2ccccc2)nc1` has what recorded melting point?
[reply] 243 to 245 °C

[ask] So what's the measured melting point for this one? `Cn1nc(CC#N)c2c(N)ncnc21`
[reply] 135 to 138 °C

[ask] melting point lookup needed for `OCc1cc(Cl)nc(Cl)c1` , thanks.
[reply] 128 to 130 °C

[ask] Item under review: `CCN1C(=O)CC(=O)N(CC)C1=S` . Reported melting point?
[reply] 106 to 109 °C

---

experimentalReadout: melting point

As a guide, the following entries are already answered.
[
  {
    "molSmiles": "COC(=O)c1cccc(Cl)c1Cl",
    "melting point": "33 to 38 °C"
  },
  {
    "molSmiles": "Clc1ncnc2ccsc12",
    "melting point": "125 to 126 °C"
  },
  {
    "molSmiles": "O=C1C(=O)C(Br)=C(Br)C(Br)=C1Br",
    "melting point": "143 to 148 °C"
  },
  {
    "molSmiles": "Brc1n[nH]c(Br)c1Br",
    "melting point": "190 to 192 °C"
  }
]

[ask] Suppose we examine the molecule `CN1CCN(Cc2cccc(I)c2)CC1` ; what melting point value has been reported?
[reply] 81 to 83 °C

[ask] What does the record list as melting point for `Cc1cc(N)ccc1F` ?
[reply] 35 to 37 °C

[ask] Dear colleague, I am looking for the recorded melting point of the following molecule: `Nc1ccc(Br)cc1C(=O)c1ccccc1F`
[reply] 100 to 104 °C

[ask] # melting point lookup, item `CC(C)(C)c1cc(O)c(O)c(C(C)(C)C)c1`
[reply] 96 to 99 °C

[ask] # query: melting point of entry `Cn1ccc2c(CO)cccc21`
[reply] 69 to 71 °C
